Yield by entry:
- System: peptide amidase
- experiment notes: Enzymatic cleavage of N-terminal protected dipeptide amides
- Format: biochemical, orange
- experimental parameters: peptide amidase
Peptide text beside a SMILES is read from it. * marks the point of attachment. Cbz = O=C(OCc1ccccc1)*; Boc = CC(C)(C)OC(=O)*
A number alone suffices; assume %.

Quick check: Yield of CC(C)C[C@H](NC(=O)CNC(c1ccccc1)(c1ccccc1)c1ccccc1)C(=O)N[C@H](C(N)=O)C(C)C [Trt--Gly--Leu--Val--NH2] ?
95

Quick check: Yield of CC(C)C[C@H](NC(=O)OC(C)(C)C)C(=O)N[C@H](C(N)=O)C(C)C [Boc--Leu--Val--NH2] (Boc-Leu-Val-NH2) ?
20

Quick check: Yield of CC(C)C[C@H](NC(=O)[C@@H]1CCCN1C(=O)OCc1ccccc1)C(=O)NCC(N)=O [Z--Pro--Leu--Gly--NH2] (Cbz-Pro-Leu-Gly-NH2) ?
90

Quick check: Yield of NC(=O)[C@H](Cc1ccccc1)NC(=O)CNC(=O)OCc1ccccc1 [Z--Gly--Phe--NH2] (Cbz-Gly-Phe-NH2) ?
100

Quick check: Yield of CC(C)C[C@H](NC(=O)CNC(=O)CNC(=O)OCc1ccccc1)C(N)=O [Z--Gly--Gly--Leu--NH2] (Cbz-Gly-Gly-Leu-NH2) ?
100

====

- System: peptide amidase
- experiment notes: Enzymatic cleavage of N-terminal protected dipeptide amides
- Format: biochemical, orange
- experimental parameters: peptide amidase
Peptide text beside a SMILES is read from it. * marks the point of attachment. Cbz = O=C(OCc1ccccc1)*
Yield by entry:
A number alone suffices; assume %.

INSERT INTO results (molecule, endpoint_label, units, meas_value) VALUES
  ('N=C(N)NCCC[C@H](NC(=O)[C@H](Cc1ccc(O)cc1)NC=O)C(N)=O [For--Tyr--Arg--NH2]', 'Yield', '%', 100),
  ('NC(=O)[C@H](Cc1ccc(O)cc1)NC(=O)CNC(=O)OCc1ccccc1 [Z--Gly--Tyr--NH2, benzyloxycarbonyl-glycyltyrosinamide] (Cbz-Gly-Tyr-NH2)', 'Yield', '%', 100);

Entry NC(=O)[C@H](Cc1ccccc1)NC(=O)[C@@H]1CCCN1C(=O)OCc1ccccc1 [Z--Pro--Phe--NH2] (Cbz-Pro-Phe-NH2) , system peptide amidase: what Yield was measured?
100

====

Yield by entry:
- Test system: peptide amidase
- experiment notes: Deamidation of N-terminal protected amino acid amides
- Format: biochemical, orange
- experimental parameters: 10 mM substrate; 50 μg.ml peptide amidase; pH 7.0; 30° C.; 120 min
Form entry: enter the amount, then its unit.

Some solved entries appear below for comparison.
INSERT INTO results (molecule, meas_value) VALUES
  ('NC(=O)[C@H](Cc1ccc(O)cc1)NC(=O)c1ccccc1', '100 %/2 h'),
  ('N=C(N)NCCC[C@H](NC(=O)c1ccccc1)C(N)=O', '100 %/2 h'),
  ('NC(=O)[C@H](Cc1c[nH]c2ccccc12)NC(=O)OCc1ccccc1', '23.5 %/2 h');

Next:
Quick check: Yield of CC(=O)N[C@@H](Cc1c[nH]c2ccccc12)C(N)=O ?
100 %/2 h

====

- Test system: peptide amidase
- experiment notes: Deamidation of N-terminal protected amino acid amides
- Type: biochemical, orange
- experimental parameters: 10 mM substrate; 50 μg.ml peptide amidase; pH 7.0; 30° C.; 28 min
Yield by entry:
Form entry: enter the amount, then its unit.

INSERT INTO results (molecule, meas_value) VALUES
  ('NC(=O)[C@H](Cc1ccc(O)cc1)NC(=O)c1ccccc1', '88.7 %/28 min');

Quick check: Yield of NC(=O)[C@H](Cc1c[nH]c2ccccc12)NC(=O)OCc1ccccc1 ?
5.16 %/28 min

Quick check: Yield of CC(=O)N[C@@H](Cc1c[nH]c2ccccc12)C(N)=O ?
32.4 %/28 min

Quick check: Yield of N=C(N)NCCC[C@H](NC(=O)c1ccccc1)C(N)=O ?
61.6 %/28 min
